biological target: CDK6/Cyclin D3 (Homo sapiens (Human)); test: TR-FRET kinase inhibition assay, CDK6/Cyclin D3; conditions: 1 mM ATP, 0.15 μM Rb (Ser780)-biotin substrate, read-out: CDK6D3 IC50
Endpoint Label: IC50 (nM)

Examples with their reported IC50 follow.
COc1ccc(NCc2cc(=O)c3ccc(-c4nc(N[C@@H]5CCOC[C@H]5O)ncc4F)cc3n2C(C)C)cc1 [Example 101]	312
CC(C)n1c(CN[C@H]2CCCOC2)cc(=O)c2ccc(-c3nc(N[C@@H]4CCOC[C@H]4O)ncc3F)cc21 [Example 60]	638
CC(C)n1c(C(=O)N2CCOCC2)cc(=O)c2ccc(-c3nc(N[C@@H]4CCOC[C@H]4O)ncc3Cl)cc21 [Example 13]	539

A: CC(C)n1cc(C2CC2)c(=O)c2ccc(-c3nc(N[C@@H]4CCOC[C@H]4O)ncc3F)cc21 [Example 9]
B: CC(C)n1c(CN2CCCC(F)(F)C2)cc(=O)c2ccc(-c3nc(N[C@@H]4CCOC[C@H]4O)ncc3F)cc21 [Example 70]
C: Cc1c(C2CCN2C)n(C(C)C)c2cc(-c3nc(N[C@@H]4CCOC[C@H]4O)ncc3F)ccc2c1=O (stereo partly shown) [Example 387]
D: CC(C)n1c(CN2CCC(C)(O)CC2)cc(=O)c2ccc(-c3nc(N[C@@H]4CCOC[C@H]4O)ncc3F)cc21 [Example 38]
Qu. Sort low-to-high on IC50, please. Note for the reader: the ranking is given by listing the labels in the order requested.
Ans. C, B, A, D

====

biological target: CDK6/Cyclin D3 (Homo sapiens (Human), UniProt Q00534); assay: TR-FRET kinase inhibition assay, CDK6/Cyclin D3; conditions: 1 mM ATP, 0.15 μM Rb (Ser780)-biotin substrate, read-out: CDK6D3 IC50
Sequence (Q00534 whole entry): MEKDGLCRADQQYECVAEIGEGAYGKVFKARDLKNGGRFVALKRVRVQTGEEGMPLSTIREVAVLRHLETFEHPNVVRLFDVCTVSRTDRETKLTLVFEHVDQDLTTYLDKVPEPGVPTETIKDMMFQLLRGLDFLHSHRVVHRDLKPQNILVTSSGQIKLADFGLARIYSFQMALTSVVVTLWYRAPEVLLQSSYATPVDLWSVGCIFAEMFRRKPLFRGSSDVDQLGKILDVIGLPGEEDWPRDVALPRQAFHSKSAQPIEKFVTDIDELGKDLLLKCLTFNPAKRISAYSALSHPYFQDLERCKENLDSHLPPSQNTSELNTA
Sequence (P30281 whole entry partner): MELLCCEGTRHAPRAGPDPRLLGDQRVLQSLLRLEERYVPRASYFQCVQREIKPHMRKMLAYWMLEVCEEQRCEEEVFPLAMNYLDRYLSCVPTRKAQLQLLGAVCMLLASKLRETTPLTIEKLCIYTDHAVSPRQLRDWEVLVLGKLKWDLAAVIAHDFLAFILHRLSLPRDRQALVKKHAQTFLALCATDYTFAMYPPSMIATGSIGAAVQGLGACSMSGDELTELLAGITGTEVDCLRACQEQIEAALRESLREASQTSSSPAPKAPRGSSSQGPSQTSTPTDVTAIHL
pIC50: −log10 of the molar value.
Endpoint Label: pIC50

Examples with their reported pIC50 follow.
CC(C)n1c(CN2C[C@@H](F)[C@@H](O)C2)cc(=O)c2ccc(-c3nc(N[C@@H]4CCOC[C@H]4O)ncc3F)cc21	6.19
CC(C)n1c(CN2CCC(O)CC2)cc(=O)c2ccc(-c3nc(N[C@@H]4CCOC[C@H]4O)ncc3F)cc21	6.13
CC(C)n1c(CN2CCC[C@]3(CCNC3=O)C2)cc(=O)c2ccc(-c3nc(N[C@@H]4CCOC[C@H]4O)ncc3F)cc21	6.54
Cc1c(CN2CCOCC23CC3)n(C(C)C)c2cc(-c3nc(N[C@@H]4CCOC[C@H]4O)ncc3F)ccc2c1=O	7.01
CC(C)n1c(CN2CCC(C)(C)CC2)cc(=O)c2ccc(-c3nc(N[C@@H]4CCOC[C@H]4O)ncc3F)cc21	5.69

P: CC(C)n1c(CN2C[C@H]3C[C@@H]2CO3)cc(=O)c2ccc(-c3nc(N[C@@H]4CCOC[C@H]4O)ncc3F)cc21
Q: CC(C)n1c(CNc2ccccc2)cc(=O)c2ccc(-c3nc(N[C@@H]4CCOC[C@H]4O)ncc3F)cc21
Qu. Returns: the label, P or Q , whose recorded pIC50 is the lower number. Pick one and reply with its label.
Ans. P

a: Cc1c(C2CCCN2)n(C(C)C)c2cc(-c3nc(N[C@@H]4CCOC[C@H]4O)ncc3F)ccc2c1=O (stereo partly drawn)
b: Cc1c(CN(C)C)n(C(C)C)c2cc(-c3nc(N[C@@H]4CCOC[C@H]4O)ncc3F)ccc2c1=O
c: CC(C)n1c(CN2CC(O)C2)cc(=O)c2ccc(-c3nc(N[C@@H]4CCOC[C@H]4O)ncc3F)cc21
Qu. Rank the 3 molecules: largest pIC50 first, smallest last. Note for the reader: the ranking is given by listing the labels in the order requested.
Ans. a, b, c

====

target: CDK4/Cyclin D1 (Homo sapiens (Human)); assay: TR-FRET kinase inhibition assay, CDK4/Cyclin D1; conditions: 1 mM ATP, 0.15 μM Rb (Ser780)-biotin substrate, read-out: CDK4D1 IC50
Endpoint Label: IC50 (nM)

A: CC(C)n1c(CN2CCOC[C@H]2C)cc(=O)c2ccc(-c3nc(N[C@@H]4CCOC[C@H]4O)ncc3F)cc21 [Example 82]
B: Cc1c(CN2CCCC(F)(F)C2)n(C(C)C)c2cc(-c3nc(N[C@@H]4CCOC[C@H]4O)ncc3F)ccc2c1=O [Example 116]
Qu. Hi there! Just curious which has the higher IC50 between A and B . Pick one and reply with its label.
Ans. A
(A: 12 nM, B: 3.9 nM)

====

molecular target: CDK4/Cyclin D1 (Homo sapiens (Human), UniProt P11802); experiment: TR-FRET kinase inhibition assay, CDK4/Cyclin D1; conditions: 1 mM ATP, 0.15 μM Rb (Ser780)-biotin substrate, read-out: CDK4D1 IC50
Sequence (P11802 whole entry): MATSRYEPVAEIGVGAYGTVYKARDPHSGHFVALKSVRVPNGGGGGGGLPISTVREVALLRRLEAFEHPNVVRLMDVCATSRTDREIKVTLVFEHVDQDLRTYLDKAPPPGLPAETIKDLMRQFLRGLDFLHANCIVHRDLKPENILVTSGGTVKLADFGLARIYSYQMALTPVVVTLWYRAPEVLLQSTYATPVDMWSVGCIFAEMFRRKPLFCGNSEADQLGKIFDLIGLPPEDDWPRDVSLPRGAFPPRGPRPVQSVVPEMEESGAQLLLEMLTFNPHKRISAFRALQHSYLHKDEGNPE
Sequence (P24385 whole entry partner): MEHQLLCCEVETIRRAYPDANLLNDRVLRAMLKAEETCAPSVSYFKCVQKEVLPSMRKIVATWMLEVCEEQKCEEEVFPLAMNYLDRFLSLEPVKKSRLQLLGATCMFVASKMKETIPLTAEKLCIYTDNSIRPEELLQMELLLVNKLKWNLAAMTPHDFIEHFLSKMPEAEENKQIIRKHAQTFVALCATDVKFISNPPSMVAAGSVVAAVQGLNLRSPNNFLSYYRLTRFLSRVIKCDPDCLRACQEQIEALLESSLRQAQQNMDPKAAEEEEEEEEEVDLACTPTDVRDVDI
pIC50: −log10 of the molar value.
Endpoint Label: pIC50

Cc1c(CN2CCC[C@H](O)C2)n(C(C)C)c2cc(-c3nc(N[C@@H]4CCOC[C@H]4O)ncc3F)ccc2c1=O	8.37
CC(C)n1c(CN2C[C@H]3COC[C@H]3C2)cc(=O)c2ccc(-c3nc(N[C@@H]4CCOC[C@H]4O)ncc3F)cc21	7.62
CC(C)n1c(CN2CCC3(CCCO3)C2)cc(=O)c2ccc(-c3nc(N[C@@H]4CCOC[C@H]4O)ncc3F)cc21 (some centres unmarked)	7.62
CC(C)n1c(CN2CCC[C@]3(CCNC3=O)C2)cc(=O)c2ccc(-c3nc(N[C@@H]4CCOC[C@H]4O)ncc3F)cc21	8.39

P: CC(C)n1c(CN2C[C@H]3C[C@@H]2CO3)cc(=O)c2ccc(-c3nc(N[C@@H]4CCOC[C@H]4O)ncc3F)cc21
Q: CC(C)n1c(CN2CCC[C@H](C#N)C2)cc(=O)c2ccc(-c3nc(N[C@@H]4CCOC[C@H]4O)ncc3F)cc21
R: Cc1c(CNC2CC2)n(C(C)C)c2cc(-c3nc(N[C@@H]4CCOC[C@H]4O)ncc3F)ccc2c1=O
Qu. Rank the 3 compounds: largest pIC50 first, smallest last. Note for the reader: the ranking is given by listing the labels in the order requested.
Ans. Q, R, P

====

target: CDK4/Cyclin D1 (Homo sapiens (Human)); test: TR-FRET kinase inhibition assay, CDK4/Cyclin D1; settings: 1 mM ATP, 0.15 μM Rb (Ser780)-biotin substrate, read-out: CDK4D1 IC50
pIC50: −log10 of the molar value.
Endpoint Label: pIC50

Examples with their reported pIC50 follow.
CC(C)n1c(CN2CCC3(CCCO3)CC2)cc(=O)c2ccc(-c3nc(N[C@@H]4CCOC[C@H]4O)ncc3F)cc21	7.54
CC(C)n1c(CN2C[C@@H]3C[C@H]2CO3)cc(=O)c2ccc(-c3nc(N[C@@H]4CCOC[C@H]4O)ncc3F)cc21	8.00

I: CC(C)n1cc(C(C)(C)O)c(=O)c2ccc(-c3nc(N[C@@H]4CCOC[C@H]4O)ncc3F)cc21
II: Cc1c(CN2CCOCC23CC3)n(C(C)C)c2cc(-c3nc(N[C@@H]4CCOC[C@H]4O)ncc3F)ccc2c1=O
Qu. Hi there! Just curious which has the higher pIC50 between I and II . Pick one and reply with its label.
Ans. II
(II: 8.72, I: 6.60)

====

biological target: CDK6/Cyclin D3 (Homo sapiens (Human), UniProt Q00534); experiment: TR-FRET kinase inhibition assay, CDK6/Cyclin D3; details: 1 mM ATP, 0.15 μM Rb (Ser780)-biotin substrate, read-out: CDK6D3 IC50
Endpoint Label: IC50 (µM)

Examples with their reported IC50 follow.
CC(C)n1c(CNC2CCCC2)cc(=O)c2ccc(-c3nc(N[C@@H]4CCOC[C@H]4O)ncc3F)cc21	0.651
Cc1c(Cl)c(=O)c2ccc(-c3nc(N[C@@H]4CCOC[C@H]4O)ncc3F)cc2n1C(C)C	0.255

a: CC(C)n1c(CN2CCOCC2)cc(=O)c2ccc(-c3nc(N[C@@H]4CCOC[C@H]4O)ncc3Cl)cc21
b: Cc1c(CNC2CC2)n(C(C)C)c2cc(-c3nc(N[C@@H]4CCOC[C@H]4O)ncc3F)ccc2c1=O
Qu. Hi there! Just curious which has the higher IC50 between a and b . Pick one and reply with its label.
Ans. a
(a: 0.336 µM, b: 0.211 µM)

====

target: CDK4/Cyclin D1 (Homo sapiens (Human), UniProt P11802); experiment: TR-FRET kinase inhibition assay, CDK4/Cyclin D1; conditions: 1 mM ATP, 0.15 μM Rb (Ser780)-biotin substrate, read-out: CDK4D1 IC50
Endpoint Label: IC50 (nM)

CC(C)n1c(CN2C3CCC2COC3)cc(=O)c2ccc(-c3nc(N[C@@H]4CCOC[C@H]4O)ncc3F)cc21 [Example 29]	19

a: CC(C)n1c(CN2CCC(C)(C)CC2)cc(=O)c2ccc(-c3nc(N[C@@H]4CCOC[C@H]4O)ncc3F)cc21
b: CC(C)n1c(CN2CCC(C)(C)C2)cc(=O)c2ccc(-c3nc(N[C@@H]4CCOC[C@H]4O)ncc3F)cc21
c: CC(C)n1c(CN2CCS(=O)(=O)CC2)cc(=O)c2ccc(-c3nc(N[C@@H]4CCOC[C@H]4O)ncc3F)cc21
Qu. Sort low-to-high on IC50, please. Note for the reader: the ranking is given by listing the labels in the order requested.
Ans. b, c, a
(b: 15 nM, c: 32 nM, a: 64 nM)
